- experiment_summary: Cytotoxicity against mouse HT22 cells assessed as cell viability at 20 uM by MTT assay relative to control
- Assay type: cell-based, HT-22
- measurement_setup: read-out: Activity

- structure_string: "CCN(C)C(=O)Oc1ccc(/C=C/C(=O)N2CCc3ccccc3C2)cc1OC"
  unit: "%"
  viability at 20 µM: 79.8

====

Collected inhibition values appear next to each entry.
- test_target: Amyloid-beta precursor protein (Homo sapiens) (UniProt P05067)
- Sequence (P05067 whole entry, the tested form may be a part): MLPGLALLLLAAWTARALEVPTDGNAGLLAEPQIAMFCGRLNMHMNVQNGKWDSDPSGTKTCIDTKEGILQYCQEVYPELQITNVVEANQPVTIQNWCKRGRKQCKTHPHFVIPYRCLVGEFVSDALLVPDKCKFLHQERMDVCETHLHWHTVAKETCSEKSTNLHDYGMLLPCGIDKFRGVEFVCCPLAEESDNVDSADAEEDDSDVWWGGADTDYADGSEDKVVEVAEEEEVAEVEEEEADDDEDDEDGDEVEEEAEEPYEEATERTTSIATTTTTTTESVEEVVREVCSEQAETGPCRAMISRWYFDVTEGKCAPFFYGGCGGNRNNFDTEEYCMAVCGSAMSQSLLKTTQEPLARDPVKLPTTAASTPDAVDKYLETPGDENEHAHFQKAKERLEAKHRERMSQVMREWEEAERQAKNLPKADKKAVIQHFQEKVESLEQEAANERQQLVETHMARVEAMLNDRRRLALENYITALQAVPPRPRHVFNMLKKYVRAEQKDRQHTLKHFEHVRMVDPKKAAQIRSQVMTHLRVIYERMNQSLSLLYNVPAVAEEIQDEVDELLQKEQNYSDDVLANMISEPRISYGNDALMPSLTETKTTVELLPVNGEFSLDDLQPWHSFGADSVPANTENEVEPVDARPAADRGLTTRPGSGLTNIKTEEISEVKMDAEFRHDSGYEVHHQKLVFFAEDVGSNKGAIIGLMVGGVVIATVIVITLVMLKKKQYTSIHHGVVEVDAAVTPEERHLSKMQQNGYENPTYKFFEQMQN
- experiment_summary: Inhibition of self-induced Amyloid beta (1 to 42 residues) (unknown origin) aggregation at 25 uM measured after 24 hrs by thioflavin T-based fluorimetric assay relative to control
recorded_endpoint: inhibition (%)

- structure_string: "CCN(C)C(=O)Oc1ccc(/C=C/C(=O)N2CCC(Cc3ccccc3)CC2)cc1OC"
  test_target: "Amyloid-beta precursor protein (Homo sapiens) (UniProt P05067)"
  unit: "%"
  numeric_readout: 53.7
- structure_string: "COc1cc(/C=C/C(=O)N2CCC(Cc3ccccc3)CC2)ccc1OC(=O)N(C)C"
  test_target: "Amyloid-beta precursor protein (Homo sapiens) (UniProt P05067)"
  unit: "%"
  numeric_readout: 56.6
- structure_string: "CCN(C)C(=O)Oc1ccc(/C=C/C(=O)N(CC)Cc2ccccc2)cc1OC"
  test_target: "Amyloid-beta precursor protein (Homo sapiens) (UniProt P05067)"
  unit: "%"
  numeric_readout: 50.7
- structure_string: "CCN(C)C(=O)Oc1ccc(/C=C/C(=O)N2CCC(Cc3ccccc3)CC2)cc1"
  test_target: "Amyloid-beta precursor protein (Homo sapiens) (UniProt P05067)"
  unit: "%"
  numeric_readout: 48.1
- structure_string: "CCN(C)C(=O)Oc1ccc(/C=C/C(=O)N2CCc3ccccc3C2)cc1OC"
  test_target: "Amyloid-beta precursor protein (Homo sapiens) (UniProt P05067)"
  unit: "%"
  numeric_readout: 58.2
- structure_string: "CCN(C)C(=O)Oc1ccc(/C=C/C(=O)N2CCc3ccccc3C2)cc1"
  test_target: "Amyloid-beta precursor protein (Homo sapiens) (UniProt P05067)"
  unit: "%"
  numeric_readout: 52.9
- structure_string: "CCN(CC)C(=O)Oc1ccc(/C=C/C(=O)N2CCC(Cc3ccccc3)CC2)cc1OC"
  test_target: "Amyloid-beta precursor protein (Homo sapiens) (UniProt P05067)"
  unit: "%"
  numeric_readout: 49.7

Data provenance: ChEMBL document CHEMBL4680246
